test: self-splicing fitness, log relative to wild type (ln ratio); higher = more splicing; Tetrahymena group I intron in knt gene, E. coli kanamycin selection, DiMSum; sequences stand for … in CUCUCU…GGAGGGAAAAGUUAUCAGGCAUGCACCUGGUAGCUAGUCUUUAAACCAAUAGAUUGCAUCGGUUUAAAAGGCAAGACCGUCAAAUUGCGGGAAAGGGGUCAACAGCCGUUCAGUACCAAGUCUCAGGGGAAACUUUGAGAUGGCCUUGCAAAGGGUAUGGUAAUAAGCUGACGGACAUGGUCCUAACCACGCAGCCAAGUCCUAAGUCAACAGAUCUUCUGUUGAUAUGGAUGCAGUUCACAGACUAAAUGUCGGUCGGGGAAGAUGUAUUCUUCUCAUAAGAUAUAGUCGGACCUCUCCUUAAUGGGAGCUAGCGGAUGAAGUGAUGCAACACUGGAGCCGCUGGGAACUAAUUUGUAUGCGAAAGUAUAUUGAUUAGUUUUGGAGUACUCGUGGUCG; conditions: 30 °C;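 further: selection with 25 µg/mL kanamycin versus none on LB agar overnight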
Hi all, reminder that labels come from self-splicing fitness (ln), split as L = under -3, M = from -3 up to -2, H = -2 and over

CUUGAGCAAUAUUACGUGCA : L

State the band of GGCUAGCAAUAUUACGGCUU
H

State the band of ACGAAGCAAUAUUACGUAGU
L

State the band of CGGAAGCAAUAUUACGAGCG
H
